Numbers sourced from paper PMC12510028.

- systemUnderTest: T1, Avi-tagged BIN1 SH3 domain (human, UniProt O00499 520-593, biotin within the 15 amino acid AviTag peptide (enzymatic, in E. coli))
- T1 chain: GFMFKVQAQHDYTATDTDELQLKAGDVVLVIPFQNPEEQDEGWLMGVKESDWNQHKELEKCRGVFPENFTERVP
- methodNotes: SPR
Entries and their Kd

- Ac-GYGFRLPPSSPQKL-NH2 [p140Cap 14-mer peptide 498-512]: > 75 µM

Now for another entry.
Per the records, this binder ( Ac-ERSLVGFGPPVPAK-NH2 [p140Cap 14-mer peptide 583-596] ) has Kd equal to > 75 µM
